# System: MS2 coat protein
# Assay notes: apparent KD of MS2 coat protein; higher = weaker reporter binding
# Study conditions: Eterna round: R107; input ligand: arginine 13.2 mM
Can you tell me apparent KD of MS2 coat protein for the items I'm about to list?
Answers are plain numbers, in nM.

{"columns": ["Item sequence", "Measurement target", "apparent KD of MS2 coat protein (nM)"],
 "data": [
  ["AAUUGAAACAGAGGUAUAUACGGACAUUACCGAGGACCGGUACGGCCGCCACUCGACCUAAAACAUGAGGAUCACCCAUGUAGCA [theeternabot_exclusion_MS2_Trp_A_20]", "MS2 coat protein", 12.6],
  ["UGUCAGCGAAAGUUGACAUGCAGUGCCGGUCGAGGACCGGUACGGCCGCCACUCGAUCUCUCGUACAUGAGGAUCACCCAUGUCG [SS Tryp A #19]", "MS2 coat protein", 14.4],
  ["GGACUAACCAGAAGGAGCGGCACGCAGAAACUGCAAUUUCCUCCACACGAGGAUCACCCGUGUCAGGUAGGUCGCUGGUUAGUCG [ArgBX 29]", "MS2 coat protein", 26.4]
]}

# return apparent KD of MS2 coat protein for each item in the list
1. GGCACGUACGGAAGGAGCGACUGUUCGACGUGGGUACAUGAGGAUCACCCAUGUCUCCGCAGUCAGGUAGGUCGCCGUACGUGCC [EAB NP+V+V2 #21 +-Same Structure]
2. UGGUACAUGAGGAUCACCCAUGUUCCAGAUACCAGCGUCCCGGUGCGCCCUUGGCAGCUGGUGGUACAUGAGGAUCACCCAUGUG [Exclusion Theophylline A GF14]

1. 34.3
2. 35.2

For each entry beneath this line, provide reported apparent KD of MS2 coat protein.
1. GGAUAGGACACGGCCGCCACUAGCUAGGAUACUAGCAACAUUUCCUCAUCUGAGGAUCACCCAGGUAGGACCGGGUGUCCUAUCG
2. AUGAAGCUAAGAGAUACCAGUGACCACAGAUACAUGAGGAUCACCCAUGUCUCAAAUUGUCACCCUUGGCAGCUCACUAUCGAAG [theeternabot_sameState_MS2_Theo_B_29]

1. 172
2. 11.2

I need apparent KD of MS2 coat protein for every entry listed below, if you could help.
1. UAUCCACAUGAGGAUCACCCAUGUAAGGAAGGAGCGGUGAAUGCACCAGGUAGGUCGCCUUGCUGAGGACUGUCGGUGGAUUCGU [Exclusion - Arginine A (Freestyle 22)]
2. AAAACACAUGAGGAUCACCCAUGUCAUGAUACCAGUCCACAUGAGGACCCUUGGCAGCAUAAAAUGGGUAACAUGAGGAUAACCC [AstrosEXyTheA#4]
3. AGCCUAUUACAUGAGGAUCACCCAUGUGAUACCAGUCAGGAAACUGACCCUUGGCAGCGCAUGAGGAUCACCCAUGCGCGAGGCA [Omei Theo A Exc A v4]

26.8
26.5
10.1

Please give apparent KD of MS2 coat protein for each item listed below.
1. UGACAUUGCUCAGAUACCAGACAUGAGGAUCACCCAUGUGCCAAAACGUACUAAAUAAAUGUCCCUUGGCAGCUGAGCAAUGUCU [TheoBX 13 #MS2Left #Theo2]
2. AGAUUCGACACGGCCGCCACUUGUGGUGGAUUAUCCUAUGUAAGACAUGAGGAUCACCCAUGUACAAGGACCGGGUGUUGAGUCU [XTryp B #22]

[13.5, 108]
